Reference for the values: patent US20240390383A1

- measured-on: GCase (GBA) in human fibroblast cell line GM10915 harboring the L444P GBA mutation (Homo sapiens, UniProt P04062, L483P)
- Construct: Human fibroblast cell line GM10915 harboring the L444P GBA mutation; host or cells: GM10915 human fibroblasts
- Sequence (P04062 40-536 L483P): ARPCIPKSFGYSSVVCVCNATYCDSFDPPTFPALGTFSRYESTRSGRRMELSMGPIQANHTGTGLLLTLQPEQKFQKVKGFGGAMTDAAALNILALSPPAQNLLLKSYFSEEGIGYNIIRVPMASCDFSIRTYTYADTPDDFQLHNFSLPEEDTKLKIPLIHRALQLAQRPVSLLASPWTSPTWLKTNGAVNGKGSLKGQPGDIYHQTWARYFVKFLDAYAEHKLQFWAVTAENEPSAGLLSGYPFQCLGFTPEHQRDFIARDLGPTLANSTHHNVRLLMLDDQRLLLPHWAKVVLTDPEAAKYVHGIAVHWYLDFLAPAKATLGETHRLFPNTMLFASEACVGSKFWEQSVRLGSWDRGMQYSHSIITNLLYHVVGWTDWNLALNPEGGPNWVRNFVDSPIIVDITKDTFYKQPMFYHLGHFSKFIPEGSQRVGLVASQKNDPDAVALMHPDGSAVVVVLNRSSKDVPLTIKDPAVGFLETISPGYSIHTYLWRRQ
- experimental-protocol: GCase activity assay (4-MUG substrate, normalised to crystal violet staining) in L444P GBA fibroblasts
- Format: cell-based
- condition-label: maximum percent GCase activity relative to untreated cells in the dose range tested, 5 days exposure
quantity-kind: Emax (%)

- compound: "COc1ncc(CC2(C3=NOC(C)C(CN4CCCCC4)O3)CCNC2)cc1Cl (stereo not drawn) [compound 647]"
  Emax (%): 103
- compound: "C1CCN(CC2CON=C([C@]34CCC[C@H]3NCC4)O2)CC1 (stereo partly drawn) [compound 558]"
  Emax (%): 225
- compound: "C1CCN(CC2CON=C(C34CCCN(CC3)C4)O2)CC1 (racemic) [compound 553]"
  Emax (%): 341
- compound: "CC1(C)CNCC1C1=NOCC(CN2CCCCC2)O1 (racemic) [compound 688]"
  Emax (%): 152
- compound: "C1CCN(CCC2=NOC[C@H](CN3CCCCC3)O2)CC1 [compound 891]"
  Emax (%): 209
- compound: "C[C@@H]1CC(C2=NOCC(CN3CCCCC3)O2)C[C@H](C)N1 (mixture of isomers) [compound 633]"
  Emax (%): 226

[1] N[C@H]1CN[C@@H](C2=NOCC(CN3CCCCC3)O2)C1 (stereo partly drawn) [compound 564]
[2] C[C@]1(C2=NOC[C@H](CN3CCCCC3)O2)CCCNC1 [compound 881]
[3] CC1ON=C(C2CCNC2)OC1CN1CCCCC1 (racemic) [compound 616]
// ascending sort on recorded Emax Please reply with the labels ordered as requested. Many thanks.
1, 2, 3

[a] c1ccc(N2CCC(C3=NOCC(CN4CCCCC4)O3)C2)nc1 (stereo not drawn) [compound 672]
[b] CN1CCC(C2=NOCC(CN3CCCCC3)O2)CC1 (racemic) [compound 770]
Param metric = Emax; output whichever of a , b has the minimum value. Refer to your chosen entry by its label in the reply.
a
(a: 127%, b: 265%)

[a] NCC(=O)N1CCCC(C2=NOCC(CN3CCCCC3)O2)C1 (racemic) [compound 725]
[b] c1cncc(CC2(C3=NOCC(CN4CCCCC4)O3)CCOCC2)c1 (stereo not drawn) [compound 552]
Param metric = Emax; output whichever of a , b has the minimum value. Refer to your chosen entry by its label in the reply.
b
(b: 115%, a: 168%)

[P] CC1(C)CC(C2=NOCC(CN3CCCCC3)O2)CCN1 (racemic) [compound 705]
[Q] Nc1ccc(N2CCC(C3=NOCC(CN4CCCCC4)O3)CC2)nc1 (stereo not drawn) [compound 679]
Lab note: check whether P or Q shows the higher recorded Emax. Refer to your chosen entry by its label in the reply.
P

[1] CC(C)c1ccc(CC2(C3=NOCC(CN4CCCCC4)O3)CCNCC2)cn1 (stereo not drawn) [compound 538]
[2] c1ncn2c1CC(C1=NOCC(CN3CCCCC3)O1)CC2 (racemic) [compound 655]
Lab note: check whether 1 or 2 shows the higher recorded Emax. Refer to your chosen entry by its label in the reply.
2
(2: 232%, 1: 147%)
